# System Under Test: EPHB2 (UniProt P29323)
# Sequence (P29323 whole entry, looked up): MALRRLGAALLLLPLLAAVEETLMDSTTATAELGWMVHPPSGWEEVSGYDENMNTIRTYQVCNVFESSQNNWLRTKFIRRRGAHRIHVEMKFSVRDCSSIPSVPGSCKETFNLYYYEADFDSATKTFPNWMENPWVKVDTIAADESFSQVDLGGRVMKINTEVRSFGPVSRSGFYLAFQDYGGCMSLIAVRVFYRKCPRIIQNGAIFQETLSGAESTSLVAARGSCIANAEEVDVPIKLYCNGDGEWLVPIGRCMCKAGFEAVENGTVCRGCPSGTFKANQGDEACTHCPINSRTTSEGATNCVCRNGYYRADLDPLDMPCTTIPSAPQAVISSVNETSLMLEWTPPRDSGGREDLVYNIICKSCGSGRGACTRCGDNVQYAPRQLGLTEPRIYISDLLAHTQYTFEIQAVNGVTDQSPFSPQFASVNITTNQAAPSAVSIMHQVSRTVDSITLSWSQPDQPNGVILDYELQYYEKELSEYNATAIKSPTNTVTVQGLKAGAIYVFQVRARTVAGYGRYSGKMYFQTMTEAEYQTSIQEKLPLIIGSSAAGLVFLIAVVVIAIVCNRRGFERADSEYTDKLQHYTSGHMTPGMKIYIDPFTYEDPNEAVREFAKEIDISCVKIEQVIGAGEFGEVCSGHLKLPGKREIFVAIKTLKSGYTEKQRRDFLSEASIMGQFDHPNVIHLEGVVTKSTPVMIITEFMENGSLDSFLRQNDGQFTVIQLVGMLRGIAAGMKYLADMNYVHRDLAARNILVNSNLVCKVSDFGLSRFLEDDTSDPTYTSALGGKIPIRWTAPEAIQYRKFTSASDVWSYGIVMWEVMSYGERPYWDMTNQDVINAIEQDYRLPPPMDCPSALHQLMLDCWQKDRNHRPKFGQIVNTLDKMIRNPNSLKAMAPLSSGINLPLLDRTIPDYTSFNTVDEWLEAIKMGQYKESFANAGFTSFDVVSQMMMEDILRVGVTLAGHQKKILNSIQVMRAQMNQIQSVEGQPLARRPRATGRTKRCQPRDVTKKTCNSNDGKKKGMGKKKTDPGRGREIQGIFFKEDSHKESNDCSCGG
# Assay Method Text: phosphorylation enrichment, bacterial display (enrichment ratio); higher = better substrate or ligand; peptides without Tyr show the background;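 further: 11-residue human phosphosite peptides and single-mutation variants displayed on the E. coli surface, counted by deep sequencing, each peptide's frequency after selection divided by its frequency in the unselected input library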;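 further: frequency after pTyr selection over input frequency; kinase dosed for 20-30% of maximal phosphorylation in three min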
Assay Metric: phosphorylation enrichment

> print(dat)
                           seq.text       system.under.test  measured.number
1        AIIEEYLHLND [EIF4G1_Y1253]  EPHB2 (UniProt P29323)            0.498
2          RIFDYYSARKA [STOX1_Y858]  EPHB2 (UniProt P29323)            0.656
3    TRSFDYTEGGD [FGF7_Y58_M59T_YF]  EPHB2 (UniProt P29323)            0.519
4            GENTMYAQVFN [LY9_Y603]  EPHB2 (UniProt P29323)            0.787
5           HESEIYCKVCY [CSRP3_Y57]  EPHB2 (UniProt P29323)            0.782
6    NYNPNYCFAGK [ALK_Y1096_D1091N]  EPHB2 (UniProt P29323)             1.27
7  MTEEQYIKMNR [ARFGEF2_Y797_K794E]  EPHB2 (UniProt P29323)            0.502

Entry source: the supplement of paper PMC10065799
